Tested on: VCaP prostate cancer cells (TMPRSS2-ERG)
Experiment: 72 h GI50 assay in VCaP
Settings: selectivity for VCaP over other prostate cancer cell lines
# maps each entry to its Ratio of median GI50 Prostate cells lacking TMPRSS2-ERG:VCaP
Write no unit; give the number alone.

Returns the measured Ratio of median GI50 Prostate cells lacking TMPRSS2-ERG:VCaP for the input compound. Input: COC(=O)C(Cc1ccccc1)NC(=O)C(Cc1c[nH]c2ccccc12)NC(=O)C(OC)C1Cc2cc3cc(OC4CC(OC5CC(O)C(O)C(C)O5)C(O)C(C)O4)c(C)c(O)c3c(O)c2C(=O)C1OC1CC(OC2CC(OC3CC(C)(O)C(O)C(C)O3)C(O)C(C)O2)C(O)C(C)O1 (centres unmarked) [Analogue 59, MTMSA-Trp-Phe]
3.6

Returns the measured Ratio of median GI50 Prostate cells lacking TMPRSS2-ERG:VCaP for the input compound. Input: COC(=O)C(Cc1ccccc1)NC(=O)C(Cc1ccccc1)NC(=O)C(OC)C1Cc2cc3cc(OC4CC(OC5CC(O)C(O)C(C)O5)C(O)C(C)O4)c(C)c(O)c3c(O)c2C(=O)C1OC1CC(OC2CC(OC3CC(C)(O)C(O)C(C)O3)C(O)C(C)O2)C(O)C(C)O1 (centres unmarked) [Analogue 63, MTMSA-Phe-Phe]
2.6

Returns the measured Ratio of median GI50 Prostate cells lacking TMPRSS2-ERG:VCaP for the input compound. Input: COC(=O)C(Cc1c[nH]c2ccccc12)NC(=O)C(Cc1ccccc1)NC(=O)C(OC)C1Cc2cc3cc(OC4CC(OC5CC(O)C(O)C(C)O5)C(O)C(C)O4)c(C)c(O)c3c(O)c2C(=O)C1OC1CC(OC2CC(OC3CC(C)(O)C(O)C(C)O3)C(O)C(C)O2)C(O)C(C)O1 (centres unmarked) [Analogue 60, MTMSA-Phe-Trp]
25.4

Returns the measured Ratio of median GI50 Prostate cells lacking TMPRSS2-ERG:VCaP for the input compound. Input: COC(=O)C(Cc1cn(C)c2ccccc12)NC(=O)C(OC)C1Cc2cc3cc(OC4CC(OC5CC(O)C(O)C(C)O5)C(O)C(C)O4)c(C)c(O)c3c(O)c2C(=O)C1OC1CC(OC2CC(OC3CC(C)(O)C(O)C(C)O3)C(O)C(C)O2)C(O)C(C)O1 (centres unmarked) [Analogue 45]
5.1

Returns the measured Ratio of median GI50 Prostate cells lacking TMPRSS2-ERG:VCaP for the input compound. Input: C=CCOc1ccc2[nH]cc(CC(NC(=O)C(OC)C3Cc4cc5cc(OC6CC(OC7CC(O)C(O)C(C)O7)C(O)C(C)O6)c(C)c(O)c5c(O)c4C(=O)C3OC3CC(OC4CC(OC5CC(C)(O)C(O)C(C)O5)C(O)C(C)O4)C(O)C(C)O3)C(=O)OC)c2c1 (centres unmarked) [Analogue 51]
0.9

Returns the measured Ratio of median GI50 Prostate cells lacking TMPRSS2-ERG:VCaP for the input compound. Input: COC(=O)C(Cc1c[nH]c2ccccc12)NC(=O)C(OC)C1Cc2cc3cc(OC4CC(OC5CC(O)C(O)C(C)O5)C(O)C(C)O4)c(C)c(O)c3c(O)c2C(=O)C1OC1CC(OC2CC(OC3CC(C)(O)C(O)C(C)O3)C(O)C(C)O2)C(O)C(C)O1 (centres unmarked) [MTMSA-Trp (3), Mithramycin SA-Tryptophan, reference compound]
1.3

Returns the measured Ratio of median GI50 Prostate cells lacking TMPRSS2-ERG:VCaP for the input compound. Input: COC(=O)C(Cc1c[nH]c2ccccc12)NC(=O)C(Cc1c[nH]c2ccccc12)NC(=O)C(OC)C1Cc2cc3cc(OC4CC(OC5CC(O)C(O)C(C)O5)C(O)C(C)O4)c(C)c(O)c3c(O)c2C(=O)C1OC1CC(OC2CC(OC3CC(C)(O)C(O)C(C)O3)C(O)C(C)O2)C(O)C(C)O1 (centres unmarked) [Analogue 61, MTMSA-Trp-Trp]
18.3

Returns the measured Ratio of median GI50 Prostate cells lacking TMPRSS2-ERG:VCaP for the input compound. Input: COC(=O)C(Cc1c[nH]c2cc(F)ccc12)NC(=O)C(OC)C1Cc2cc3cc(OC4CC(OC5CC(O)C(O)C(C)O5)C(O)C(C)O4)c(C)c(O)c3c(O)c2C(=O)C1OC1CC(OC2CC(OC3CC(C)(O)C(O)C(C)O3)C(O)C(C)O2)C(O)C(C)O1 (centres unmarked) [Analogue 56]
0.6
